Tested on: NCI-H460 lung
Field 'call' accepts active, inactive

Compound	Discrete label
NS(=O)(=O)c1ccc(-c2ccc3c(NC(=O)C4CC4)n[nH]c3c2)cc1	inactive
CCNCCNc1cc(-c2ccc(C(F)(F)F)cc2)c(C#N)c2nc3ccccc3n12	inactive
O=S(=O)(c1ccc(NC(=S)NC23CC4CC(CC(C4)C2)C3)cc1)N1CCCCC1	inactive
Cc1ccc(NC(=O)c2cccc(C(C)(C)C#N)c2)cc1Nc1ccc2ncn(C)c(=O)c2c1	inactive

Field: next compound
Give the logged outcome of this assay for the following compound: CC(C)c1ccc(-c2cc(-c3cn[nH]c3-c3ccccn3)ccn2)cc1
inactive

---

Test system: COLO 205 colon
Experiment: NCI tumour cell line growth inhibition, 48 h
Measure: TGI

Some solved cases for reference:
>>> df
                                   compound    assay_target  observed
0  CCOC(=O)CCC(=O)C1c2cccc(O)c2C(=O)c2c(O)cc(C)cc21 (stereo unspecified)  COLO 205 colon   3.57 µM
1  C=C(C)[C@H]1Cc2c(ccc3c2O[C@@H]2COc4cc(OC)c(OC)cc4[C@@H]2C3=O)O1  COLO 205 colon  0.539 µM
2  CC(C)c1ccc(-c2cc(-c3cn[nH]c3-c3ccccn3)ccn2)cc1  COLO 205 colon   > 25 µM
3  O=C(/C=C/c1ccc(Cl)c(Cl)c1)c1ccc2ccccc2c1  COLO 205 colon   28.7 µM
4  CCO/C=N\C1=C(C#N)SC2=N/C(=C\c3ccc(OC)cc3)C(=O)N21  COLO 205 colon  > 100 µM
5  COc1ccc(-c2nc3ccccn3c2/C=C/C(=O)c2cc(OC)c(OC)c(OC)c2)cc1OC  COLO 205 colon  > 100 µM
6  Cc1ccc(N=C/C=C(\Nc2ccc(C)cc2)c2ccc(Cl)cc2)cc1  COLO 205 colon  > 100 µM
7  Cc1cc(NC(=S)SCc2ccc(F)cc2)c([N+](=O)[O-])cc1C  COLO 205 colon   37.2 µM

Look up TGI: O=C1/C(=C(/c2ccccc2)N2CCOCC2)Cc2ccccc21
2.94 µM

And for COC(=O)[C@@]12C(=O)C=CC(=O)C1C1C(=CC2C)OC2OC3(CCCCC3)OC21 (stereo partly specified) ?
28.4 µM

And for C[C@@H]1Nc2cc(NC(=O)OCCF)nc(N)c2N=C1c1ccccc1 ?
< 0.0001 µM

And for NS(=O)(=O)c1ccc(-c2ccc3c(NC(=O)C4CC4)n[nH]c3c2)cc1 ?
> 25 µM

And for CCC(C)NC1=NCC(C)S1 (stereo unspecified) ?
> 100 µM

And for CCN1CCN(c2nc3ccccc3c3c2CCOc2ccccc2-3)CC1 ?
37.2 µM

And for COCC[C@H]1CCC/C=C/[C@@H]2C[C@H](O)C[C@H]2[C@H](O)/C=C/C(=O)O1 ?
0.0472 µM

And for COc1cc2c3c(n(CCCN)c(=O)c2cc1OC)-c1ccc(C#N)cc1C3=O ?
28.7 µM

---

Test system: NCI-H522 lung
Experiment: NCI tumour cell line growth inhibition, 48 h
Measure: TGI (µM)
Output spec: scalar in µM, unitless text.

Molecule smiles	Result units	Observed
Cc1cc(C(=O)Nc2ccc3cc(CN4CCOCC4)ccc3n2)c(C)n1-c1ccccc1	µM	9.38
C=C(C)CCN[Si](c1ccccc1)(c1ccccc1)C(C)(C)C	µM	44.3
CC(=O)Oc1ccc2cc(-c3ccccc3OC(C)=O)c(=O)oc2c1	µM	17.9

Query molecule follows.
Look up TGI: COc1ccc(/C=C/c2c(C(=O)/C=C/c3ccccc3)c(C)nc3ccccc23)cc1
4.83

---

System: HL-60(TB) leukemia
Assay: NCI tumour cell line growth inhibition, 48 h
Measure: TGI (µM)
Output spec: scalar in µM, unitless text.

Compound	TGI (µM)
COc1cc(Br)cc2cc(-c3cn4c(n3)sc3ccccc34)c(=O)oc12	36.2

Look up TGI: C[N+]1(C)CCc2cc(O)c(O)cc2C1Cc1ccc(O)c(O)c1 (stereo not given)
54.8

And for O=C(NC(Cc1ccccc1)(Cc1ccc(O)cn1)C(=O)O)c1ccccc1 (stereo not given) ?
68.2

---

Tested on: MCF7 breast
Experiment: NCI tumour cell line growth inhibition, 48 h
Item-by-item account of TGI

Some solved cases for reference:
                                   compound  observed
0    Cc1cc2nc(C=C(C(F)(F)F)C(F)(F)F)oc2cc1C   > 10 µM
1  CCOC(=O)CNC(=O)N(CC)C12CC3CC(CC(C3)C1)C2    444 µM
2  COc1ccc(/C=C/c2c(C(=O)/C=C/c3ccccc3)c(C)nc3ccccc23)cc1   7.74 µM

Query compound follows.
Look up TGI: CC(C)OC(=O)/C=C/C(=O)O/C=C/[N+](=O)[O-]
54.9 µM

---

Item-by-item account of TGI
Tested on: MDA-N
Assay: NCI tumour cell line growth inhibition, 48 h
Output spec: scalar in µM, unitless text.

Some solved cases for reference:
In [3]: df
Out[3]:
                                   compound  measure  observed
0  COC1=C(OC)C(=O)C(Cc2c(C)nc3sccn23)=C(C)C1=O      TGI        26
1  C[C@@H](c1ccccc1)n1c(N)c(C#N)c2ccc([N+](=O)[O-])cc2c1=O      TGI      78.4
2  CCCCCCCCCCCC(=O)OCC(C[As](=O)(O)O)OC(=O)CCCCCCCCCCC (stereo not given)      TGI        13

Look up TGI: Cc1ccc2c3c1O[C@H]1c4[nH]c5ccccc5c4C[C@@]4(O)[C@@H](C2)N(CC2CC2)CC[C@]314
30.5

---

Test system: UACC-62 melanoma
Assay: NCI tumour cell line growth inhibition, 48 h; in the data active means GI50 below about 0.43 µM; inactive means the rest
Peptide text beside a SMILES is read from it.
Field 'call' accepts label 1 (active), label 0 (inactive)

Some solved cases for reference:
                                   compound  discrete_label
0       C=CCCCCC/C=C\[C@@H](O)C#CC#C/C=C/CO         label 0
1  O=S(=O)(c1ccc(NC(=S)NC23CC4CC(CC(C4)C2)C3)cc1)N1CCCCC1         label 0
2  Cc1cc(C)c(NC(=O)c2sc3nc4c(cc3c2N)C(=O)CCC4)c(C)c1         label 0
3  COc1cc2ncnc(-n3ncc4cc(NC(=O)Nc5ccccc5)ccc43)c2cc1OC         label 0
4  NS(=O)(=O)c1ccc(-c2ccc3c(NC(=O)C4CC4)n[nH]c3c2)cc1         label 0

Give the logged outcome of this assay for the following compound: CCOC(=O)CNC(=O)C(Cc1ccccc1)NC(=O)C(N)CC(=O)O (stereo not drawn) (H-Asp-Phe-Gly-OEt; configuration not given here)
label 0

And for N#Cc1ccccc1CSc1ncnc2nc[nH]c12 ?
label 0

And for COc1cc2c3c(n(CCCN)c(=O)c2cc1OC)-c1ccc(C#N)cc1C3=O ?
label 0

And for COc1ccc(C(=O)c2cc(OC)c(OC)c(OC)c2)cc1/C=C/C(=O)c1ccc(F)cc1 ?
label 0

And for COC(=O)Nc1nc2ccc(C3(c4ccc(F)cc4)OCCO3)cc2[nH]1 ?
label 0

And for O=C(Nc1n[nH]c2cc(-c3ccccc3)ccc12)C1CC1 ?
label 0

And for Nc1ccccc1C#C/C=C\C#Cc1ccccc1N ?
label 0

And for COCC[C@H]1CCC/C=C/[C@@H]2C[C@H](O)C[C@H]2[C@H](O)/C=C/C(=O)O1 ?
label 1

And for O=C1/C(=C(/c2ccccc2)N2CCOCC2)Cc2ccccc21 ?
label 0

And for O=C1c2cccnc2-c2nc(-c3ccc(Cl)cc3)cc3c2c1nc1ccccc13 ?
label 0

---

Test system: DU-145 prostate
Experiment: NCI tumour cell line growth inhibition, 48 h
Measure: TGI (µM)
Output spec: scalar in µM, unitless text.

Molecule smiles	Result units	TGI
C=C1C(=O)O[C@H]2[C@H]1CC/C(COC(=O)NCCCCNC(=O)OC/C1=C/CC[C@@]3(C)O[C@H]3[C@H]3OC(=O)C(=C)[C@@H]3CC1)=C\CC[C@@]1(C)O[C@@H]21	µM	10.5
COC1=C(OC)C(=O)C(Cc2c(C)nc3sccn23)=C(C)C1=O	µM	38.6
Cc1ccc([N+](=O)[O-])c2c(NCCC[N+](C)(C)[O-])c3ccccc3nc12	µM	8.19
COc1ccc(-c2cc(-c3cc(C)cc(Br)c3O)no2)cc1	µM	36.2

Query molecule follows.
Look up TGI: C1=Cc2cc3c(c4nccc(c24)N1)OCO3
26.6

---

System: SR leukemia
Experiment: NCI tumour cell line growth inhibition, 48 h; in the data active = GI50 below about 0.43 µM; inactive = the rest
Field 'call' accepts active, inactive

Some solved cases for reference:
In [3]: df
Out[3]:
                      molecule  assay_target  discrete_label
0   COc1ccc(C[N+](C)(C)N)cc1OC   SR leukemia        inactive
1  N#Cc1cc(-c2cc3ccccc3o2)oc1N   SR leukemia        inactive
2        S=c1ssc(N2CCOCC2)c1Cl   SR leukemia        inactive

Give the logged outcome of this assay for the following molecule: Cc1ccc(NC(=O)c2cccc(C(C)(C)C#N)c2)cc1Nc1ccc2ncn(C)c(=O)c2c1
inactive

And for CCNCCNc1cc(-c2ccc(C(F)(F)F)cc2)c(C#N)c2nc3ccccc3n12 ?
active

And for COc1ccc(C(=O)c2cc(C)c(OC)c(C)c2)cc1OC(=O)CCl ?
active

And for O=c1cc(NCC(O)CN2CCCC2)n(Cc2ccccc2)c(=O)n1Cc1ccccc1 (stereo not given) ?
inactive

And for COc1ccc2[nH]c3c4[nH]c5ccc(OC)cc5c4c4c(c3c2c1)C(=O)NC4=O ?
inactive

And for c1ccc(Sc2ccc(Cc3nc4cc5ccccc5cc4[nH]3)cc2)cc1 ?
inactive

And for C=C(C)[C@@H]1CC[C@]2(CO)CC[C@]3(C)[C@H](CC[C@@H]4[C@@]5(C)C=C(C#N)C(=O)C(C)(C)[C@@H]5CC[C@]43C)[C@@H]12 ?
inactive

And for Cc1cc(C)c(NC(=O)c2sc3nc4c(cc3c2N)C(=O)CCC4)c(C)c1 ?
inactive

And for COC(=O)Nc1nc2ccc(C3(c4ccc(F)cc4)OCCO3)cc2[nH]1 ?
active

And for Nc1nc(Nc2cccnc2)sc1C(=O)c1ccccc1F ?
inactive

And for Cc1cc(C(=O)Nc2ccc3cc(CN4CCOCC4)ccc3n2)c(C)n1-c1ccccc1 ?
inactive

And for COCC[C@H]1CCC/C=C/[C@@H]2C[C@H](O)C[C@H]2[C@H](O)/C=C/C(=O)O1 ?
active
